System: CAMK1D;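 further: KINOMEscan kinase panel screen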
conditionInfo: concentration: 1 μM, replicates: in singlicate; n = 1
quantity: %Inh (%)
Your answer is read as %, so omit the unit and give the number.

{"molecule": "FC(F)(F)c1ccc(-c2ncn(CCCN3CCOCC3)c2-c2ccncc2)cc1", "unitsSymbol": "%", "%Inh": 23}

Challenge: Give recorded %Inh with CAMK1D for the following molecule: `Cl.c1ccc(Cn2cnc3cc(Nc4ncnc5ccccc45)ccc32)cc1`
Response given: 0

Challenge: Query %Inh on CAMK1D for COc1cc(Nc2nccc(N3CCC(NC(=O)C(C)c4ccc(Cl)cc4)C3)n2)cc(OC)c1OC (stereo not shown)
Response given: 9

Challenge: Look up %Inh with CAMK1D for this molecule: COc1ccc(Nc2nccc(N3CCC(NS(=O)(=O)c4ccc(NC(C)=O)cc4)C3)n2)cc1 (stereo not shown)
Response given: 19
